All figures here come from patent EP0221032A2.

# assay_remarks: Stability in a 10% aqueous solution at various temperatures
# Format: physicochemical
# run_conditions: water, 45°C, 3 month, read-out: Titre % (HPLC)
Where a name gives a salt, the structure may show the parent alone.
measurement_kind: remaining at 2160 h (%)

# molecule, measurement_kind, unit_of_measurement, recorded_number
data = [
    ("CCc1cccc2c3c([nH]c12)C(CC)(CC(=O)O)OCC3 (stereo not shown) [sodium salt of etodolic acid, Sodium salt of etodolic acid]", "remaining at 2160 h", "%", 100),
]

* * *

# assay_remarks: Stability in a 10% aqueous solution at various temperatures
# Format: physicochemical
# run_conditions: water, 5°C, 1 month, read-out: Titre % (HPLC)
Counter-ions that a name gives are not always drawn.
measurement_kind: remaining at 720 h

# compound, result
records = [
    ("CCc1cccc2c3c([nH]c12)C(CC)(CC(=O)O)OCC3 (stereo not shown) [sodium salt of etodolic acid, Sodium salt of etodolic acid]", "99%"),
]

* * *

# assay_remarks: Stability in a 20% aqueous solution at various temperatures
# Assay type: physicochemical
# run_conditions: water, 45°C, 3 month, read-out: Titre % (HPLC)
Where a name gives a salt, the structure may show the parent alone.
measurement_kind: remaining at 2160 h (%)

# compound, recorded_number
measured = [
    ("CCc1cccc2c3c([nH]c12)C(CC)(CC(=O)O)OCC3 (stereo not shown) [sodium salt of etodolic acid, Sodium salt of etodolic acid]", 98),
]

* * *

# assay_remarks: Stability in a 20% aqueous solution at various temperatures
# Assay type: physicochemical
# run_conditions: water, 45°C, 1 month, read-out: Titre % (HPLC)
Where a name gives a salt, the structure may show the parent alone.
measurement_kind: remaining at 720 h (%)

# compound, measurement_kind, recorded_number
rows = [
    ("CCc1cccc2c3c([nH]c12)C(CC)(CC(=O)O)OCC3 (stereo not shown) [sodium salt of etodolic acid, Sodium salt of etodolic acid]", "remaining at 720 h", 99),
]

* * *

# assay_remarks: Stability in a 10% aqueous solution at various temperatures
# Format: physicochemical
# run_conditions: water, 25°C, 1 month, read-out: Titre % (HPLC)
Where a name gives a salt, the structure may show the parent alone.

# compound, remaining at 720 h / %
measured = [
    ("CCc1cccc2c3c([nH]c12)C(CC)(CC(=O)O)OCC3 (stereo not shown) [sodium salt of etodolic acid, Sodium salt of etodolic acid]", 100),
]

* * *

# assay_remarks: Stability in a 20% aqueous solution at various temperatures
# Assay type: physicochemical
# run_conditions: water, 5°C, 2 month, read-out: Titre % (HPLC)
# Description: The following tables No.1, 2 and 3 respectively show the stability data of sodium etodolate in aqueous solutions at 10% and 20% at various temperatures and again at 10% after sterilization in autoclave in a closed container.
Counter-ions that a name gives are not always drawn.

# molecule, remaining at 1440 h, %
rows = [
    ("CCc1cccc2c3c([nH]c12)C(CC)(CC(=O)O)OCC3 (stereo not shown) [sodium salt of etodolic acid, Sodium salt of etodolic acid]", 100),
]

* * *

# assay_remarks: Stability in a 20% aqueous solution at various temperatures
# Assay type: physicochemical
# run_conditions: water, 5°C, 3 month, read-out: Titre % (HPLC)
Counter-ions that a name gives are not always drawn.

# compound, remaining at 2160 h (%)
measured = [
    ("CCc1cccc2c3c([nH]c12)C(CC)(CC(=O)O)OCC3 (stereo not shown) [sodium salt of etodolic acid, Sodium salt of etodolic acid]", 97),
]

* * *

# assay_remarks: Stability in a 10% aqueous solution at various temperatures
# Type: physicochemical
# run_conditions: water, 5°C, 3 month, read-out: Titre % (HPLC)
Structures can show the parent of a compound that is named as a salt.
measurement_kind: remaining at 2160 h

# compound, result
records = [
    ("CCc1cccc2c3c([nH]c12)C(CC)(CC(=O)O)OCC3 (stereo not shown) [sodium salt of etodolic acid, Sodium salt of etodolic acid]", "100%"),
]

* * *

# assay_remarks: Stability in a 20% aqueous solution at various temperatures
# Type: physicochemical
# run_conditions: water, 25°C, 1 month, read-out: Titre % (HPLC)
Counter-ions that a name gives are not always drawn.

# compound, remaining at 720 h
data = [
    ("CCc1cccc2c3c([nH]c12)C(CC)(CC(=O)O)OCC3 (stereo not shown) [sodium salt of etodolic acid, Sodium salt of etodolic acid]", "100%"),
]

* * *

# assay_remarks: Stability in a 10% aqueous solution at various temperatures
# Type: physicochemical
# run_conditions: water, 45°C, 1 month, read-out: Titre % (HPLC)
Structures can show the parent of a compound that is named as a salt.
measurement_kind: remaining at 720 h (%)

# compound, measurement_kind, unit_of_measurement, recorded_number
records = [
    ("CCc1cccc2c3c([nH]c12)C(CC)(CC(=O)O)OCC3 (stereo not shown) [sodium salt of etodolic acid, Sodium salt of etodolic acid]", "remaining at 720 h", "%", 100),
]

* * *

# assay_remarks: Stability in a 10% aqueous solution at various temperatures
# Assay type: physicochemical
# run_conditions: water, 25°C, 3 month, read-out: Titre % (HPLC)
Where a name gives a salt, the structure may show the parent alone.
measurement_kind: remaining at 2160 h (%)

# molecule, recorded_number
records = [
    ("CCc1cccc2c3c([nH]c12)C(CC)(CC(=O)O)OCC3 (stereo not shown) [sodium salt of etodolic acid, Sodium salt of etodolic acid]", 99),
]

* * *

# assay_remarks: Stability in a 20% aqueous solution at various temperatures
# Type: physicochemical
# run_conditions: water, 25°C, 2 month, read-out: Titre % (HPLC)
# From the text: The following tables No.1, 2 and 3 respectively show the stability data of sodium etodolate in aqueous solutions at 10% and 20% at various temperatures and again at 10% after sterilization in autoclave in a closed container.
Structures can show the parent of a compound that is named as a salt.
measurement_kind: remaining at 1440 h (%)

# molecule, measurement_kind, unit_of_measurement, recorded_number
rows = [
    ("CCc1cccc2c3c([nH]c12)C(CC)(CC(=O)O)OCC3 (stereo not shown) [sodium salt of etodolic acid, Sodium salt of etodolic acid]", "remaining at 1440 h", "%", 99),
]
